- Test Protocol: collision cross section in nitrogen (drift tube, single-field); higher = larger gas-phase ion size;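 note: chemical standards at 10 µM analysed by drift tube IMS-QTOF MS in about 3.95 torr nitrogen, mean of duplicate injections differing ≤1%, mass error below 10 ppm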
- Measurement Setup: ion type: [M+H]; ion source: ESI; ion mode: Positive
Structures can show the parent of a compound that is named as a salt.
Response key: True means collision cross section in nitrogen >= 200 Å²; False means collision cross section in nitrogen < 200 Å².

Task: Record COc1ccc(Cl)cc1C(=O)NCCc1ccc(S(=O)(=O)NC(=O)NC2CCCCC2)cc1 [Glybenclamide] ; criterion: collision cross section in nitrogen no lower than 200 Å². Met?
Result: True

Task: Record O=c1cc(-c2ccccc2)oc2ccc3ccccc3c12 ; criterion: collision cross section in nitrogen no lower than 200 Å². Met?
Result: False

Task: Record OC(Cn1cncn1)(c1ccc(F)cc1)c1ccccc1F (stereo not drawn) ; criterion: collision cross section in nitrogen no lower than 200 Å². Met?
Result: False

Task: Record COc1cccc(-c2ccc(/C=C\CN3CCCCCC3)cc2Cl)c1 ; criterion: collision cross section in nitrogen no lower than 200 Å². Met?
Result: False

Task: Record Oc1ccnc(O)c1 [2,4-Dihydroxypyridine] ; criterion: collision cross section in nitrogen no lower than 200 Å². Met?
Result: False

Task: Record CC1=NNC(=O)N(/N=C/c2cccnc2)C1 ; criterion: collision cross section in nitrogen no lower than 200 Å². Met?
Result: False

Task: Record O=c1[nH]c2ccccc2n1C1CCN(CCCC(c2ccc(F)cc2)c2ccc(F)cc2)CC1 [Pimozide] ; criterion: collision cross section in nitrogen no lower than 200 Å². Met?
Result: True

Task: Record CCN(CC)c1nc(C)cc(OP(=S)(OC)OC)n1 ; criterion: collision cross section in nitrogen no lower than 200 Å². Met?
Result: False

Task: Record Nc1ccc(N)c(Cl)c1 [2-Chloro-1,4-diaminobenzene sulfate (1:1)] ; criterion: collision cross section in nitrogen no lower than 200 Å². Met?
Result: False

Task: Record CCOP(=O)(NC(C)C)Oc1ccc(SC)c(C)c1 (stereo not drawn) ; criterion: collision cross section in nitrogen no lower than 200 Å². Met?
Result: False

Task: Record Cc1oc(-c2ccccc2)nc1CCOc1ccc(C[C@H](Nc2ccccc2C(=O)c2ccccc2)C(=O)O)cc1 ; criterion: collision cross section in nitrogen no lower than 200 Å². Met?
Result: True

Task: Record CCCN[C@H]1CCc2nc(N)sc2C1 [Pramipexole dihydrochloride monohydrate] ; criterion: collision cross section in nitrogen no lower than 200 Å². Met?
Result: False

Task: Record CCCOC(=O)NCCCN(C)C [Propamocarb] ; criterion: collision cross section in nitrogen no lower than 200 Å². Met?
Result: False

Task: Record O=c1n(CCCN2CCN(c3cccc(Cl)c3)CC2)nc2ccccn12 [Trazodone hydrochloride] ; criterion: collision cross section in nitrogen no lower than 200 Å². Met?
Result: False

Task: Record CC(=O)Oc1c(C)c(C)c2c(c1C)CC[C@@](C)(CCC[C@H](C)CCC[C@H](C)CCCC(C)C)O2 (racemic) [dl-alpha-Tocopheryl acetate] ; criterion: collision cross section in nitrogen no lower than 200 Å². Met?
Result: True

Task: Record CCCCCCCCCCCCN1CCCCCC1=O ; criterion: collision cross section in nitrogen no lower than 200 Å². Met?
Result: False

Task: Record COc1ccc(OC)c(N=Nc2c(O)ccc3ccccc23)c1 ; criterion: collision cross section in nitrogen no lower than 200 Å². Met?
Result: False

Task: Record O=C(Nc1ccccc1)c1cc2ccccc2cc1O [3-Hydroxy-2-naphthanilide] ; criterion: collision cross section in nitrogen no lower than 200 Å². Met?
Result: False

This collection of values is drawn from the supplement of paper PMC12317010.
